// GI50 lookup, one value per entry
# Tested on: T-Rex 293 cell line SC3 cells lacking increased expression of androgen receptor protein
# Assay comment: Cellular growth inhibition assay, T-Rex 293 SC3 cells without doxycycline (CellTiter-Glo, 72 hours)
# Type: cell-based
# Test context: 72 h, T-Rex 293 cell line SC3 cells not exposed to doxycycline (lacking increased androgen receptor expression)

Use these answered entries as a reference point.
INSERT INTO assay_data (molecule, recorded_value) VALUES
  ('Cc1sc2c(c1C)C(c1ccc(N3CC(C4CCN(c5ccc(C(=O)N[C@H]6CC[C@H](Oc7ccc(C#N)c(Cl)c7)CC6)nn5)CC4)C3)nc1)=N[C@@H](C)c1nnc(C)n1-2 [I-463]', '500 to 1500 nM'),
  ('Cc1sc2c(c1C)C(c1ccc(CCC3CC4(CCCC(c5ccc(C(=O)N[C@H]6CC[C@H](Oc7ccc(C#N)c(Cl)c7)CC6)nn5)C4)C3)nc1)=N[C@@H](Cc1ncco1)c1nnc(C)n1-2 (some centres unmarked) [I-438]', '< 500 nM'),
  ('Cc1sc2c(c1C)C(c1ccc(N3CCOC4(CCN(c5ccc(C(=O)N[C@H]6CC[C@H](Oc7ccc(C#N)c(Cl)c7)CC6)nn5)C4)C3)cc1)=N[C@@H](C)c1nnc(C)n1-2 (single isomer, unassigned) [I-827]', '< 500 nM'),
  ('Cc1sc2c(c1C)C(c1ccc(OCC3CCC4(CCCN(c5ccc(C(=O)N[C@H]6CC[C@H](Oc7ccc(C#N)c(Cl)c7)CC6)nn5)C4)C3)cc1)=N[C@@H](C)c1nnc(C)n1-2 (some centres unmarked) [I-626]', '< 500 nM');

Could you now look at the following molecule, please?
Given the molecule Cc1sc2c(c1C)C(c1ccc(N3CC(C4CCC(Cc5ccc(C(=O)N[C@H]6CC[C@H](Oc7ccc(C#N)c(Cl)c7)CC6)nn5)CC4)C3)cc1)=N[C@@H](Cc1ncco1)c1nnc(C)n1-2 (some centres unmarked) [I-772] , what is its reported GI50?
500 to 1500 nM

====

// GI50 lookup, one value per entry
# System: T-Rex 293 cell line SC3 cells lacking increased expression of androgen receptor protein
# Assay comment: Cellular growth inhibition assay, T-Rex 293 SC3 cells without doxycycline (CellTiter-Glo, 72 hours)
# Format: cell-based
# Test context: 72 h, T-Rex 293 cell line SC3 cells not exposed to doxycycline (lacking increased androgen receptor expression)

Use these answered entries as a reference point.
INSERT INTO measurements (compound, parameter_measured, recorded_value) VALUES
  ('Cc1sc2c(c1C)C(c1ccc(N3CCC4(CCCN(c5ccc(C(=O)N[C@H]6CC[C@H](Oc7ccc(C#N)c(Cl)c7)CC6)nn5)C4)CC3)nc1)=NCc1nnc(C)n1-2 [I-476]', 'GI50', '> 3000 nM'),
  ('Cc1sc2c(c1C)C(c1ccc(C#CC3CC4(CCCN(c5ccc(C(=O)N[C@H]6CC[C@H](Oc7ccc(C#N)c(Cl)c7)CC6)nn5)C4)C3)cc1)=NCc1nnc(C)n1-2 (stereo partly shown) [I-420]', 'GI50', '> 3000 nM');

Given the compound Cc1sc2c(c1C)C(c1ccc(N3CCC[C@H](C(=O)NCc4ccc(C(=O)N[C@H]5CC[C@H](Oc6ccc(C#N)c(Cl)c6)CC5)nn4)C3)cc1)=N[C@@H](Cc1ncco1)c1nnc(C)n1-2 [I-294] , what is its reported GI50?
> 3000 nM

Given the compound CC[C@@H]1N=C(c2ccc(C#CC3CC4(C3)CN(c3ccc(C(=O)N[C@H]5CC[C@H](Oc6ccc(C#N)c(Cl)c6)CC5)nn3)C4)cc2)c2c(sc(C)c2C)-n2c(C)nnc21 [I-531] , what is its reported GI50?
< 500 nM
